Source listed as PubChem BioAssay (NCI).

system: UO-31 renal; assay: NCI-60 one-dose screen, 48 h (100 = growth as untreated, 0 = no growth, -100 = all killed); conditions: 10 µM
The panel holds about 83,000 compounds, 20% with a hit somewhere; the sample as a whole holds those more often.
The reader will find reported growth values listed item by item below.
Could you give me the number in %? Just the number is fine.

# example entries with known answers
>>> experimental_result("N/N=C(/Cc1ccccc1)NNC(N)=S")
81.4
>>> experimental_result("CCN(CC)c1ccc2nc3ccc(=[N+](CC)CC)cc-3oc2c1")
56
>>> experimental_result("CC1(C)/C(=C\\CO)C2CCC1C2 (configuration not stated)")
78.5

Can you look up the measured growth of O=S(=O)(O)c1ccc(O)c2ccccc12 for me?
77.7

Which growth is listed for Nc1ccccc1SC(CC(=O)c1ccccc1)c1c(Cl)cccc1Cl (configuration not stated) ?
58.1

What value of growth has been recorded for this entry: N#C/C(=C\c1cc(O)c(O)c(O)c1)C(N)=O
110

Query (molecule): Cc1cc(=O)n(-c2ccc(F)cc2)[nH]1 ; field requested: growth
83.3
